Origin of values: ChEMBL document CHEMBL3734711

assay_system: Sphingosine kinase 2 (Homo sapiens, UniProt Q9NRA0)
Sequence (Q9NRA0 whole entry): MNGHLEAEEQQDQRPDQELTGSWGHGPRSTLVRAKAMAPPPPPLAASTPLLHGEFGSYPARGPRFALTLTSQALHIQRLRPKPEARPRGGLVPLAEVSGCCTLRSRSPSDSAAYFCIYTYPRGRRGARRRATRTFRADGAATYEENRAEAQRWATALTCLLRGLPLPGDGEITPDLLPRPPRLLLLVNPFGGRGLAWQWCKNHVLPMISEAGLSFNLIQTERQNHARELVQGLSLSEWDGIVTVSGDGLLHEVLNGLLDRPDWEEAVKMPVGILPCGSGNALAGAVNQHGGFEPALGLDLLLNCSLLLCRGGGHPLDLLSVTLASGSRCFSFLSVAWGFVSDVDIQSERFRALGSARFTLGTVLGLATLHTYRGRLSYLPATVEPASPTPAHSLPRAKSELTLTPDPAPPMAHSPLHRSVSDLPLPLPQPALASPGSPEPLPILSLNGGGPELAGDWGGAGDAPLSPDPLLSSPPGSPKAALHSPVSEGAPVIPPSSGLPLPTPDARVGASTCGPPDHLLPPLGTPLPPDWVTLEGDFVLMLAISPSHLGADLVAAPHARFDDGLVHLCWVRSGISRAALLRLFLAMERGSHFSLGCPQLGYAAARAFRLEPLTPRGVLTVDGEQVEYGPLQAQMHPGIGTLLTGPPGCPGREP
assay_explanation: Inhibition of human recombinant SphK2 preincubated for 5 mins followed by substrate addition measured for 60 mins by plate reader assay
measured_quantity: pIC50
A value of pIC50 is the negative decimal logarithm of a concentration given in moles per litre.

Task: Test system Sphingosine kinase 2 (Homo sapiens, UniProt Q9NRA0); read-out pIC50; what value for O=C(N/N=C/c1cccc(OCc2ccccc2)c1)c1cc(O)c(O)c(O)c1 ?
Result: 4.77

Task: Query for Sphingosine kinase 2 (Homo sapiens, UniProt Q9NRA0): what pIC50 does the record show for CCCCCCCCCCCCCC(=O)Nc1nc2ccccc2[nH]1 ?
Result: 4.50

Task: Which measured pIC50 belongs to CCCCCCCCCCCCC/C=C/[C@@H](O)[C@H](CO)N(C)C [DIMETHYLSPINGOSINE] , tested on Sphingosine kinase 2 (Homo sapiens, UniProt Q9NRA0)?
Result: 4.79

Task: Request: pIC50, test system Sphingosine kinase 2 (Homo sapiens, UniProt Q9NRA0), entry CCCOc1ccc(N2C(=O)CC(Nc3ccc(CCO)cc3)C2=O)cc1 (centres undefined)
Result: 4.20
